# System: SARS-CoV-2
# ASSAY_INFO: Anti-SARS-CoV-2 activity, detection of viral genomes by RT-qPCR on infected cells
# Format: cell-based
# ASSAY_CONDITIONS: Severe acute respiratory syndrome coronavirus 2, Vero C1008, read-out: IC50 (μM) SARS-CoV-2
READOUT: IC50 (µM)
The reply should be a number in µM, with the unit left off.

Asked: Fill in: IC50 of COc1cccc2c1CCCC2CCCN1CCN(C2CCCCC2)CC1 (stereo not shown) [PB28, reference compound] is ___
Given back: 0.299
